This section presents compounds with their documented melting point values.

1. CSc1n[nH]c(-c2cc(C(C)(C)C)c(O)c(C(C)(C)C)c2)n1
271 to 272 °C
2. COCc1nc2cc3c(cc2[nH]1)NC(=O)C3(C)C
203 to 205 °C

GET /value?item= Cc1nc(-n2cnn(Cc3ccc(F)cc3)c2=O)sc1C(=O)NCc1cccnc1 &field=melting point returns 178 to 179 °C

GET /value?item= CCn1ncc(C(=O)c2ccc(S(C)(=O)=O)c(COC)c2C)c1O &field=melting point returns 116 to 118 °C

GET /value?item= C=CCC(CC=C)(CC=C)c1ccc(-c2nc3cc(C#N)c(C#N)cc3[nH]2)cc1 &field=melting point returns 264 to 266 °C

GET /value?item= Cc1cc2c(cc1C)SC(C(F)(F)F)C(C(=O)O)=C2 (stereo not given) &field=melting point returns 235 to 237 °C

GET /value?item= Cc1nnc(-c2ccc3occ(-c4ccc(S(=O)Cc5ccccc5)cc4)c3c2)o1 (stereo not given) &field=melting point returns 183 to 184 °C

###

This section presents compounds with their documented melting point values.

Reference set (3 entries):
1. CN(C(=O)OC[C@@]1(C)Cn2cc([N+](=O)[O-])nc2O1)c1ccc(Cl)cc1
131 to 133 °C
2. Cc1c(C=O)nc(-c2ccc(C(F)(F)F)cc2)n1C
144 °C
3. COc1cc(O)nc2cc(-c3cc(C)c(O)c(C)c3)[nH]c(=O)c12
> 330 °C

GET /value?item= OCCCNc1nc2cc(C(F)(F)F)c(Br)cc2n2ccnc12 &field=melting point returns 148 to 161 °C

GET /value?item= CCN(CC)Cc1cc(C(N)=O)ccc1N &field=melting point returns 129 to 131 °C

GET /value?item= CN1CC[C@@H](c2c(O)cc(O)c3c(=O)cc(-c4cc(Cl)ccc4Br)oc23)[C@@H]1CO &field=melting point returns 233 to 235 °C

###

endpoint: melting point

Reference set (3 entries):
1) NC(=O)CCCC1Cc2ccccc2C1
116 to 118 °C
2) C=CC(=O)NCCCCCC(=O)O
88 to 90 °C
3) CN(C)CC(c1ccccc1)c1nnc2n1-c1ccc(I)cc1C(c1ccccc1)=NC2 (stereo not given)
192 to 194 °C

GET /value?item= CCN1c2ccccc2NC(=O)c2cccnc21 &field=melting point returns 210 to 220 °C

GET /value?item= CC1(c2cccc(Cl)c2)OC(C(=O)O)Oc2ccc(Cl)cc21 (stereo not given) &field=melting point returns 131 °C

GET /value?item= COc1cccc(-n2c(-c3cc(-c4ccccc4)c(N4CCOCC4)s3)nc3ccccc3c2=O)c1 &field=melting point returns 269 to 272 °C

GET /value?item= CC(C)(C)C(=O)Oc1ccc(OC(=O)C(C)(C)C)c(C(=O)OCc2ccccc2)c1 &field=melting point returns 90.5 to 91.8 °C

GET /value?item= CCCCCCCCCCCCCCCC(=O)OC[C@H]1OCC(=NO)[C@@H](O)[C@@H]1O &field=melting point returns 97 to 104 °C

GET /value?item= CS(=O)(=O)c1ccc(CCN2CC=C(c3c[nH]c(-c4ccc(F)cc4)c3-c3ccncc3)CC2)cc1 &field=melting point returns 207 to 209 °C

GET /value?item= CC1(c2cn(-c3c(Cl)cc(C(F)(F)F)cc3Cl)nc2C#N)CC1(Br)Br (stereo not given) &field=melting point returns 133 to 134 °C

GET /value?item= Nc1nc2ccccc2c2c1nc1n2C(CCl)COC1 (stereo not given) &field=melting point returns 230 to 232 °C

GET /value?item= CC(CCCC(=NO)C(=O)O)(c1ccc(OCc2ccc3ccccc3n2)cc1)c1ccc(OCc2ccc3ccccc3n2)cc1 &field=melting point returns 78 to 80 °C

GET /value?item= CC(O)Cc1cc2c(cc1C(=NNc1ncccn1)c1ccc([N+](=O)[O-])cc1)OCO2 (stereo not given) &field=melting point returns 125 to 127 °C

###

This section presents molecules with their documented melting point values.

Reference set (3 entries):
1. CCOc1cc(-c2cc(C(F)(F)F)n3ncc(C(=O)Nc4cc(S(N)(=O)=O)sc4Cl)c3n2)ccc1C(F)(F)F
281 °C
2. O=C(O)c1ccc(-n2ccc3ccccc32)cc1
222 to 224 °C
3. O=[N+]([O-])c1ccc(S(=O)(=O)NCc2ccccc2)c([N+](=O)[O-])c1
150 to 151 °C

GET /value?item= CCN(Cc1ccc(Cl)nc1)C1=C([N+](=O)[O-])C2CCC(O2)N1C (stereo unspecified) &field=melting point returns 125 to 126 °C

GET /value?item= Cc1cc(C)nc(NCSC(=S)N2CCOCC2)n1 &field=melting point returns 119 to 121 °C

GET /value?item= Cc1c(Cc2cccnc2)c2ccccc2n1CCc1nnn[nH]1 &field=melting point returns 173 °C

GET /value?item= COC(=O)c1ccc(C(=O)NS(=O)(=O)c2ccccc2)cc1 &field=melting point returns 267 to 270 °C

GET /value?item= O=C(O)c1cccc2sc3ccccc3c(=O)c12 &field=melting point returns 269 to 270 °C

GET /value?item= Cc1cc(-n2ccnc2)c2cccc(OCc3c(Cl)ccc(S(=O)(=O)N4CCC[C@H]4C(=O)NCCN4CCOCC4)c3Cl)c2n1 &field=melting point returns 100 °C

GET /value?item= O=C1CN2Cc3c(ccc(Cl)c3Cl)N=C2N1 &field=melting point returns > 300 °C

GET /value?item= NC(=O)N(O)CC1CCCCC1 &field=melting point returns 143 to 144 °C

GET /value?item= Nc1cc(Br)cc(OCc2ccccc2)c1NC(=O)C1CC1 &field=melting point returns 207 to 208 °C

GET /value?item= O=c1[nH]ccn1-c1ccc(OCC(F)(F)C(F)F)cc1 &field=melting point returns 157 to 159 °C

###

endpoint: melting point

Reference set (3 entries):
1. CCCCc1cn(CC2OC(n3cnc4c(NCc5ccc(OC)cc5)ncnc43)C(O)C2O)nn1 (stereo unspecified)
105 °C
2. Nc1nc(-c2ccc(CNC(=O)c3cccnc3)s2)cs1
240 to 241 °C
3. CCOP(=O)(OCC)c1ccccc1
256 °C

GET /value?item= O=C(c1ccccc1)c1cnn2c(-c3ccncc3)ccnc12 &field=melting point returns 185 to 186 °C

GET /value?item= COc1cc(N)c(C(=O)CS(C)=O)cc1OC (stereo unspecified) &field=melting point returns 162 to 164 °C

GET /value?item= COC(=O)CCCCCCc1ncsc1C=O &field=melting point returns 60 to 62 °C

GET /value?item= C=CC=Cc1cc(Oc2cnc(N)nc2N)c(I)cc1C &field=melting point returns 195 to 197 °C

GET /value?item= CC(=O)N[C@@H](C)COC1CCN(c2nc3ccc(OCC(F)(F)F)cc3s2)CC1 &field=melting point returns 129 to 131 °C

###

endpoint: melting point

Reference set (3 entries):
1) CC(C)(C)OC(=O)COc1ccc([N+](=O)[O-])cc1F
62 to 64 °C
2) O=C(Cn1cccc(O)c1=O)NCCN(CCNC(=O)Cn1cccc(O)c1=O)CCNC(=O)Cn1cccc(O)c1=O
112 to 114 °C
3) COc1ccc(C2Nc3ccccc3C(=O)N2c2ccc(F)c(C(F)(F)F)c2)cn1 (stereo not given)
167 to 168 °C

GET /value?item= CC(C)(C)[Si](C)(C)Oc1ccc(N)c([N+](=O)[O-])c1 &field=melting point returns 80 to 83 °C

GET /value?item= CCC1CC2C3CCC4=CC(=O)CCC4C3CCC2(C)C1OC(=O)CCl (stereo not given) &field=melting point returns 135 to 136 °C

###

This section presents compounds with their documented melting point values.

Reference set (6 entries):
1. CC(C)(C)C(=O)Oc1ccc2c3c(cnc2c1)CCCC3O[Si](C)(C)C(C)(C)C (stereo not given)
125 to 126 °C
2. CCC1(CCCCN2CCN(c3cccc(Cl)c3)CC2)C(=O)Nc2ccc(C)cc21 (stereo not given)
142 to 144 °C
3. CCOC(=O)c1cc2c(O)nncc2nc1NC(C)C
219 to 220 °C
4. COc1cc(C(=O)N(C(C)C)C2CCCCC2)ccc1Cn1c(CN(C)C)nc2ncccc21
141 to 142 °C
5. COC(=O)c1ccc(CN2C(=O)C3(COc4cc5c(cc43)OCCO5)c3ccccc32)o1 (stereo not given)
88 to 92 °C
6. Cn1c(/C=C/C(=O)Cl)c(-c2ccccc2)c2ccccc2c1=O
213 to 215 °C

GET /value?item= Cc1nc(N2CCc3ccccc3CC2)c(C#N)c(=O)n1CC1CC1 &field=melting point returns 119 to 122 °C

GET /value?item= CN(SN(C)C(=O)F)C(=O)F &field=melting point returns 40 to 41 °C

GET /value?item= CCOC(=O)C(CC)Oc1cccc(N2CCN(c3ccncc3)CC2)c1 (stereo not given) &field=melting point returns 160 to 162 °C

GET /value?item= CC(=O)SCCC(=O)N(C)c1nnc(-c2cccnc2)s1 &field=melting point returns 133 to 135 °C

Reference for the values: a melting point compilation (Tetko et al.; mined from patent text by program, amines drawn as free bases though some values may be those of a salt)
